- experimental-target: GST-KIAA1634 PDZ domain 4 (Homo sapiens (Human)), Q5TCQ9
- Sequence (Q5TCQ9 844-945): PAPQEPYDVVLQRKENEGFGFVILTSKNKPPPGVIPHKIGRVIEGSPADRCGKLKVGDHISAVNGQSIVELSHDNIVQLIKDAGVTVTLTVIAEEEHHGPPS
- protocol-notes: G' assay; further: key of the grades not given here
endpoint-name: Classification (A450 class)

1) TQGFPGPATWRRISSLESEV (modifications not checked) [NMDA Glutamate Receptor 2C (cysteine-free)] :: 1
2) VGTLLLERVIFPSVKIATLV (modifications not checked) [AdenoE4 typ9] :: 4
3) QISPGGLEPPSEKHFRETEV (modifications not checked) [TAX] :: 2
4) AGAVRTPLSQVNKVWDQSSV (modifications not checked) [CITRON protein] :: 3
5) KDITSDSENSNFRNEIQSLV (modifications not checked) [CD95] :: 1
